Measured Km of individual entries
- Test system: LPESG (Abz-LPESGK(Dnp)-CONH2)
- ASSAY TEXT: In vitro sortase kinetics HPLC assay, LPESG substrate
- Format: biochemical
- CONDITION: 1 mM 4S (LPESG) substrate; read-out: Km, GGG

# MOLECULE, Km, mM
measured = [
    ("4S.6B: 5mut + N98D A104V A118S F122A K134P I182V E189P (protein) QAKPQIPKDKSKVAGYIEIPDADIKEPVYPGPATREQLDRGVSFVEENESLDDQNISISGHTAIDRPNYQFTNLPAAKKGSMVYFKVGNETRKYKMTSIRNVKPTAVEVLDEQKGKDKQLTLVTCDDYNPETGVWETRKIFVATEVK", 15.7),
    ("4S.6C: 5mut + N98D A104V A118T F122A K134R I182V E189F (protein) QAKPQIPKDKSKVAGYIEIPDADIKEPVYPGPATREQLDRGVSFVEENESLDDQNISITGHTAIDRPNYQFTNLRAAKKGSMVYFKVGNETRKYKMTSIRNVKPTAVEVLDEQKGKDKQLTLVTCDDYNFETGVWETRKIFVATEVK", 36),
    ("eSrtA(4S-5): 5mut + N98D A104V A118T F122A K134R I182V (protein) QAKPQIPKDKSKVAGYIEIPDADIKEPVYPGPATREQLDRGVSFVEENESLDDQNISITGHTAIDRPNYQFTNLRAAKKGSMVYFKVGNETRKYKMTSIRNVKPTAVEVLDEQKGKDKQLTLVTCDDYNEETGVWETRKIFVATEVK", 26.7),
]
